As shown below, each of these sequences has a reported gcPBM binding intensity (ln) value.
# System: PfAP2-G AP2 domain (GST-tagged)
# assay: gcPBM binding intensity (ln(normalized median fluorescence intensity)); higher = stronger DNA binding
In all, about 25,000 sequences were measured (“ln(normalized median fluorescence intensity)”: median about 10, highest 2% from about 12 on). The full list was thinned out, with the highest values kept by preference.
propertyName: gcPBM binding intensity (ln)

>  <sequenceCode>
TGTGTTAATATATGAAGTACACAATACACACTAATT [XGTACX_site5469]

>  <studySystem>
PfAP2-G AP2 domain (GST-tagged)

>  <propertyName>
gcPBM binding intensity (ln)

>  <testResult>
11.4

$$$$
>  <sequenceCode>
ATTCTAAATTAAAATACACACATATATACATAATAT [CACACA_site2792]

>  <studySystem>
PfAP2-G AP2 domain (GST-tagged)

>  <propertyName>
gcPBM binding intensity (ln)

>  <testResult>
9.98

$$$$
>  <sequenceCode>
ATAAATTTTTAAACAGCACACATAAATATAATATAT [CACACA_site8691]

>  <studySystem>
PfAP2-G AP2 domain (GST-tagged)

>  <propertyName>
gcPBM binding intensity (ln)

>  <testResult>
10.1

$$$$
>  <sequenceCode>
AAAAAAAAAAAACATACACACATACATACAGATATA [CACACA_site4681]

>  <studySystem>
PfAP2-G AP2 domain (GST-tagged)

>  <propertyName>
gcPBM binding intensity (ln)

>  <testResult>
9.94

$$$$
>  <sequenceCode>
ATAAACAGATAAAAGGGTACACACATATATACATGT [XGTACX_site452]

>  <studySystem>
PfAP2-G AP2 domain (GST-tagged)

>  <propertyName>
gcPBM binding intensity (ln)

>  <testResult>
11.4

$$$$
>  <sequenceCode>
TGTAGTTTTTATTTATGTACGCATAACATAATTTAA [XGTACX_site104]

>  <studySystem>
PfAP2-G AP2 domain (GST-tagged)

>  <propertyName>
gcPBM binding intensity (ln)

>  <testResult>
11.6

$$$$
>  <sequenceCode>
AACATACAGAAACACACACACACACCCACACCCACA [CACACA_site493]

>  <studySystem>
PfAP2-G AP2 domain (GST-tagged)

>  <propertyName>
gcPBM binding intensity (ln)

>  <testResult>
10.4

$$$$
>  <sequenceCode>
TAAAGGTAGATATATTGTACATACACACCTATATAA [XGTACX_site6865]

>  <studySystem>
PfAP2-G AP2 domain (GST-tagged)

>  <propertyName>
gcPBM binding intensity (ln)

>  <testResult>
10.9

$$$$
>  <sequenceCode>
AACAGATAAAAGGGTACACACATATATACAAGTACA [CACACA_site7959]

>  <studySystem>
PfAP2-G AP2 domain (GST-tagged)

>  <propertyName>
gcPBM binding intensity (ln)

>  <testResult>
11.7

$$$$
